EC50: recorded values
Target: PPARG/RXRA LBD heterodimer (Homo sapiens)
Construct: His-TEV-Q203-Y477; Uniprot ID P37231-2; made in house; host or cells: E. coli
Sequence (P37231 231-505): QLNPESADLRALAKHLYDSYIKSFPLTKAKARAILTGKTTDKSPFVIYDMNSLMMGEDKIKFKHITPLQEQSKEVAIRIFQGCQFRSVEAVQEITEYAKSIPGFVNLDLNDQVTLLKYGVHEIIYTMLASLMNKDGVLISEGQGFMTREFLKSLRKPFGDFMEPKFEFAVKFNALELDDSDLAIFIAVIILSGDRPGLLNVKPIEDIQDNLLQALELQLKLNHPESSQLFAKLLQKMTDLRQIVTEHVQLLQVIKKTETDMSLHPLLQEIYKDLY
Sequence (P19793 228-462 partner): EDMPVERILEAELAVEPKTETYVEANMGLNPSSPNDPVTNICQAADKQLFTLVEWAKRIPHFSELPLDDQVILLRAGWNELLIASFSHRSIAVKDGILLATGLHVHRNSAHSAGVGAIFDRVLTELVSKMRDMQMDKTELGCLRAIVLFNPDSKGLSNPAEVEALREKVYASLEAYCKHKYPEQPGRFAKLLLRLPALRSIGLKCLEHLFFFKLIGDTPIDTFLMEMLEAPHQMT
Sequence (O75376 2251-2273 partner): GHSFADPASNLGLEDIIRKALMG
Experiment: PPARγ-NCOR1 recruitment assay (TR-FRET, biotinylated NCOR1 ID2 peptide)
Format: biochemical
Conditions: 80 nM Rosiglitazone, 3 hours, read-out: PPARG-NCOR recruitment assay EC50

Would you please look over these solved cases?
[
  {
    "Structure string": "CC(C)(O)Cn1cc(-c2c(F)cc3[nH]c(-c4cc(C#N)ccc4Cl)cc(=O)c3c2F)cn1",
    "Study system": "PPARG/RXRA LBD heterodimer (Homo sapiens)",
    "EC50": "1000 to 10000 nM"
  },
  {
    "Structure string": "N#Cc1ccc(Cl)c(-c2cc(=O)c3c(F)c(-c4ccc(C(F)F)nc4)c(F)cc3[nH]2)c1",
    "Study system": "PPARG/RXRA LBD heterodimer (Homo sapiens)",
    "EC50": "10 to 100 nM"
  },
  {
    "Structure string": "CN(C)C(=O)CCc1c(F)cc2[nH]c(-c3cc(C#N)ccc3Cl)cc(=O)c2c1F",
    "Study system": "PPARG/RXRA LBD heterodimer (Homo sapiens)",
    "EC50": "1000 to 10000 nM"
  },
  {
    "Structure string": "N#Cc1ccc(Cl)c(-c2cc(=O)c3c(F)c(-c4cnn(C(F)F)c4)c(F)cc3[nH]2)c1",
    "Study system": "PPARG/RXRA LBD heterodimer (Homo sapiens)",
    "EC50": "100 to 1000 nM"
  }
]

Prompt line: Fill in EC50 for N#Cc1ccc(Cl)c(-c2cc(=O)c3c(F)c(-c4ccc(C(=O)O)cc4)c(F)cc3[nH]2)c1 tested with PPARG/RXRA LBD heterodimer (Homo sapiens).
Response line: 1000 to 10000 nM

Prompt line: Provide EC50, system PPARG/RXRA LBD heterodimer (Homo sapiens), entry N#Cc1ccc(Cl)c(-c2cc(=O)c3c(F)c(Br)c(F)cc3[nH]2)c1
Response line: 100 to 1000 nM

Prompt line: Please report EC50 with PPARG/RXRA LBD heterodimer (Homo sapiens) for item N#Cc1ccc(Cl)c(-c2[nH]c3cc(F)cc(F)c3c(=O)c2F)c1 .
Response line: > 10000 nM

Prompt line: Quote EC50 with test system PPARG/RXRA LBD heterodimer (Homo sapiens) for CN(C)C1CN(c2c(F)cc3[nH]c(-c4cc(C#N)ccc4Cl)cc(=O)c3c2F)C1
Response line: 1000 to 10000 nM

Prompt line: Report the value of EC50 obtained on PPARG/RXRA LBD heterodimer (Homo sapiens) for CS(=O)(=O)c1ccc(-c2c(F)cc3[nH]c(-c4cc(C#N)ccc4Cl)cc(=O)c3c2F)cc1 .
Response line: 100 to 1000 nM

Prompt line: Print PPARG/RXRA LBD heterodimer (Homo sapiens) EC50 for Cc1ccc(-c2c(F)cc3[nH]c(-c4cc(C#N)ccc4Cl)cc(=O)c3c2F)nn1 .
Response line: 1000 to 10000 nM

Prompt line: Return reported EC50 for target or system PPARG/RXRA LBD heterodimer (Homo sapiens), item COCc1c(F)cc2[nH]c(-c3cc(C#N)ccc3Cl)cc(=O)c2c1F .
Response line: 100 to 1000 nM

Prompt line: Please indicate recorded EC50 of N#Cc1ccc(Cl)c(-c2cc(=O)c3c(F)c(-c4ccc(C(F)(F)F)cc4)c(F)cc3[nH]2)c1 measured with PPARG/RXRA LBD heterodimer (Homo sapiens).
Response line: 10 to 100 nM
